Test system: SNB-75 CNS
Test: NCI-60 one-dose screen, 48 h (100 = growth as untreated, 0 = no growth, -100 = all killed)
Settings: 10 µM unless noted
Compounds without any hit were thinned out: in the full panel of roughly 83,000, 20% have a hit.
Measured quantity: growth (%)

> print(dat)
                                   molecule  measurement
1  Nc1nc(Nc2ccccc2)c2ncn(Cc3ccc4c(c3)OCO4)c2n1         29.4
2     Nc1nc(Cl)c2ncn(Cc3cc4c(cc3I)OCO4)c2n1         73.5
3               CC(C)CCSc1nc(N)nc2nc[nH]c12          101
4  Cc1cnc(N)nc1OCCNC(=O)c1cccc(-c2ccc(S(=O)(=O)Nc3ccc4c(c3)N(C(=O)C3CC3)CCC4)cc2)c1         57.3
5  Cc1nc(Cl)c2c(n1)N(C)c1ccc(Cl)cc1C(C)C2 (stereo not given)         66.1

----------
System: MALME-3M melanoma
Assay: NCI-60 one-dose screen, 48 h (100 = growth as untreated, 0 = no growth, -100 = all killed)
Conditions: 10 µM unless noted
This is part of a sample that, as a whole, favours compounds with a hit. Of some 83,000 tested, about 20% had one in any assay. Calls of active or inactive are those of the source. Rule for the calls: active = growth percent below 10; inactive = the rest.
The entries below are paired with their reported growth.
Measured quantity: growth

> print(dat)
                                    molecule                measurement
 1  O=C(Nc1cccc2cccnc12)c1cc(C(=O)c2ccc(Cl)cc2)n2ccc(-c3ccncc3)cc12           90.7% (inactive)
 2  CCN(CC)c1ccc2cc(C(Nc3ccc(Br)c(C(F)(F)F)c3)c3nnnn3C(C)(C)C)c(=O)oc2c1 (stereo not drawn)             88% (inactive)
 3  CC(C)[C@H]1CCC2=C3CC[C@]45OC(=O)[C@@]6(CCC(C)(C)C[C@H]64)CC[C@@]5(C)[C@]3(C)CC[C@@]21C  91.6% [100 µM] (inactive)
 4  O=C1C(Cl)=C(Nc2ccc3cn[nH]c3c2)C(=O)c2ccccc21            -88.7% (active)
 5  CC1(C)C(=O)/C(=C\c2ccco2)C[C@]2(C)[C@H]3CC=C4[C@@H]5C[C@](C)(C(=O)O)CC[C@]5(C)CC[C@@]4(C)[C@]3(C)CC[C@@H]12     -70% [100 µM] (active)
 6  Cn1cc(-c2noc(C(=O)c3cn(C)c4ncc(Br)cc34)n2)c2ccccc21           80.5% (inactive)
 7  Cc1ccc(-c2cc(O)c(-c3ccc(C)cc3C)cc2O)c(C)c1            115% (inactive)
 8  COC(=O)c1cc(O)c2c(c1C(=O)OC)C[C@H]1[C@@H]3CC=C4C[C@@H](O)CC[C@]4(C)[C@H]3CC[C@]21C           28.3% (inactive)
 9  Cc1ccc(-c2cc(-c3ccc(C)cc3)nc(NCCNc3ccnc4cc(Cl)ccc34)n2)cc1            -81.4% (active)
10  CCOc1ccccc1/C=N\Nc1ccc(S(=O)(=O)c2ccc(N/N=C/c3ccccc3OCC)cc2)cc1             98% (inactive)
11         O=c1cc(-c2ccccc2)oc2c(O)c(O)ccc12           87.2% (inactive)
12  Cc1ccc(-c2cc(-c3ccc(C)cc3)nc(N3CCN(CCNc4ccnc5cc(Cl)ccc45)CC3)n2)cc1            -45.9% (active)
13                   Cc1nc(-c2ccccc2)sc1CC#N            128% (inactive)
14   COC(=O)C(=Cc1ccccc1[N+](=O)[O-])C(=O)OC           25.2% (inactive)
15  COc1ccc(/C=C(/C(=O)c2ccc(Cl)cc2)C(=O)C(F)(F)F)cc1            107% (inactive)
16  Cc1ccc(Oc2c(/C=N/NC(=O)Cn3c(=O)sc4ccccc43)c(C)nn2-c2ccccc2)cc1           66.5% (inactive)
17  CCN(CC)CCCOc1ccc2c(c1)O/C(=C\c1cccc(OC)c1)C2=O           90.5% (inactive)
18  CN(C)c1cc(NN=C(c2ccc(O)cc2)c2ccc(O)cc2)c([N+](=O)[O-])cc1[N+](=O)[O-]            153% (inactive)

----------
System: SR leukemia
Experiment: NCI-60 one-dose screen, 48 h (100 = growth as untreated, 0 = no growth, -100 = all killed)
Settings: 10 µM unless noted
About 83,000 compounds went through this panel and 20% of them were active in at least one assay; those are over-represented in the sample as a whole. Activity calls are given as the source filed them. Rule for the calls: active = growth percent below 10; inactive = the rest.
Measured quantity: growth

Compound	Measurement
CC[C@]12C=CCN3CC[C@@]4(c5ccc(OC)cc5N(C)[C@H]4[C@@](O)(C(=O)OC)[C@@H]1OC(=O)CCC(=O)O[C@H]1CC[C@H]4[C@@H]5CCC6=CC(=O)CC[C@@H]6[C@H]5CC[C@]14C)[C@@H]32	10.5% [100 µM] (inactive)
COc1ccc(N(c2nc(-c3ccc([N+](=O)[O-])cc3)cs2)C(C)C)cc1	66.5% (inactive)
COc1cc(OC)cc(C(=O)Nc2cc(-c3cccnc3)nc(NCCCN3CCOCC3)n2)c1	57.9% (inactive)
COCCCNc1nc(NC(=O)c2cc(Br)cc(C(F)(F)F)c2)cc(-c2cccnc2)n1	83.4% (inactive)
O=C(NNc1ccc(-c2ccccc2)nn1)c1ccc(F)cc1	92% (inactive)
Cc1cc(-c2ccc(N=Nc3c(S(=O)(=O)O)cc4cc(S(=O)(=O)O)cc(N)c4c3O)c(C)c2)ccc1N=Nc1cc(S(=O)(=O)O)c2ccccc2c1O	106% (inactive)
N#CC1C(=O)NC(c2ccccc2[N+](=O)[O-])c2sc3c(F)cccc3c21 (stereo not drawn)	67.9% (inactive)
CN(C)c1cc(NN=C(c2ccc(O)cc2)c2ccc(O)cc2)c([N+](=O)[O-])cc1[N+](=O)[O-]	92.2% (inactive)

----------
Tested on: OVCAR-3 ovarian
Assay: NCI-60 one-dose screen, 48 h
Conditions: 10 µM unless noted
Experimental: Growth inhibition of the OVCAR-3 human tumor cell line is measured as a screen for anti-cancer activity. Cells are grown in 96 well plates and exposed to the test compound for 48 hours. Compounds are tested at a single concentration, which is 10^-5 M for most compounds. The reported endpoint is percent growth (GI% or GIPRCNT), where numbers from 0 - 100% represent growth inhibition, and numbers from -100% - 0 represent cell death. For example, a value of 40 represents 60% growth inhibition. […]
About 83,000 compounds went through this panel and 20% of them were active in at least one assay; those are over-represented in the sample as a whole. Active and inactive are the calls of the source. The calls were made as follows: active = growth percent below 10; inactive = the rest.
Classes used: Y = active, N = inactive

> print(dat)
                                   compound      test.system  discrete.label
1  C=C(C)[C@@H]1CC[C@]2(c3ncc(C)o3)CC[C@]3(C)[C@H](CC[C@@H]4[C@@](C)(CCC#N)[C@H](C(=C)C)CC[C@]43C)[C@@H]12  OVCAR-3 ovarian               Y
2  O=C(O)c1cccc(CN2CCN(c3cc4c(cc3F)c(=O)c(C(=O)O)cn4C3CC3)CC2)c1O  OVCAR-3 ovarian               N
3  O=[N+]([O-])c1cccc(/C=C/c2ccc3ccccc3n2)c1  OVCAR-3 ovarian               N
4  COc1ccc(C2=C(c3cn(C)c4ccccc34)C(=O)OC2)cc1OC  OVCAR-3 ovarian               Y
5  COc1ccc(-c2nc3ccccn3c2/C=C/C(=O)c2cc(OC)c(OC)c(OC)c2)cc1OC  OVCAR-3 ovarian               Y
6  Cn1cc(-c2noc(-c3cn(C)c4ncccc34)n2)c2cc(Cl)ccc21  OVCAR-3 ovarian               N
7  COc1ccc2c(c1)c(-c1noc(C(=O)c3cn(C)c4ncc(Br)cc34)n1)cn2C  OVCAR-3 ovarian               N
8  O=C(Nc1cccc(F)c1)c1cc(=O)[nH]c2cc(Br)ccc12  OVCAR-3 ovarian               N
9  CCOC(=O)CC(c1ccccc1)C(C#N)c1ccccc1 (centres undefined)  OVCAR-3 ovarian               N

----------
Test system: COLO 205 colon
Assay: NCI-60 one-dose screen, 48 h
Conditions: 10 µM unless noted
This is part of a sample that, as a whole, favours compounds with a hit. Of some 83,000 tested, about 20% had one in any assay. Active and inactive are the calls of the source. The calls were made as follows: active = growth percent below 10; inactive = the rest.
Classes used: active, inactive

Compound	Discrete label
CCCCN(CC)CC(CC)Nc1cc(OC)cc2cccnc12 (stereo not drawn)	inactive
COC(=O)c1c(C)[nH]c(/C=C2\N=C(c3ccc[nH]3)C=C2OC)c1C	active
Cc1ccc(-c2cc(O)c(-c3ccc(C)cc3C)cc2O)c(C)c1	inactive
CC[C@@H]1NC(=O)[C@@H]2CCCCN2C(=O)[C@@H]2CCCN2C(=O)[C@@H](NC(=O)[C@H](Cc2cc(F)cc(F)c2)NC(=O)Nc2ccc(C3CC3)cc2F)[C@H](C)OC(=O)[C@@H]2C[C@@H](C)CN2C1=O	active
O=C1CC(c2ccccc2)Cc2nc3ccc(Cl)cc3cc21 (stereo not drawn)	active
CCN(CC)CCCCCCNc1cccc2cc(Br)cnc12	inactive
CC(C)=CCC[C@](C)(O)[C@H]1CC[C@]2(C)[C@@H]1CC[C@@H]1[C@@]3(C)CC[C@H](OC(=O)CCC(=O)O)C(C)(C)[C@@H]3CC[C@]12C	inactive
O=[N+]([O-])c1cc([N+](=O)[O-])c(NN=C(c2ccc(O)cc2)c2ccc(O)cc2)cc1Cl	inactive
CC1(C)CC[C@]23CC[C@]4(C)[C@H](CC[C@@H]5[C@@]6(C)C/C(=C/c7cccnc7)C(=O)C(C)(C)[C@@H]6CC[C@]54C)[C@H]2[C@H]1OC3=O	inactive
Cc1ccc(Cn2c(O)c(N=NC(=O)c3ccc(S(N)(=O)=O)cc3)c3ccccc32)cc1	inactive
COc1ccc(N(c2nc(-c3ccc([N+](=O)[O-])cc3)cs2)C(C)C)cc1	inactive
CC(C)C1=NOC(=O)C1=Cc1cn(-c2ccccc2)nc1-c1ccccc1	inactive
CCOc1cc(NC(=O)c2ccccc2)c(OCC)cc1N	inactive
CCCCNC(=O)NS(=O)(=O)Cc1ccccc1	inactive
Clc1ccc(N2CCN(CCCN3CCN(c4cccc(Cl)c4)CC3)CC2)cc1	inactive
NC1=NC(=O)NC1(c1ccccc1)c1ccccc1	inactive
Fc1cc2[nH]ncc2c2c3c(c(-c4cn[nH]c4)nc12)CCCC3	active
CCCCOC(=O)c1cccc([N+](=O)[O-])c1	inactive
CCOC(=O)Nc1ccc2c(c1)/C(=N\NC(=S)NC)c1ccccc1-2	inactive
Nc1nnc(CSc2nnc3n(Cc4ccccc4)c(=O)c4c5c(sc4n23)CCCC5)s1	inactive
C=C(C)[C@@H]1CC[C@]2(C(=O)NCCNCCNCCN)CC[C@]3(C)[C@H](CC[C@@H]4[C@@]5(C)CC[C@H](O)C(C)(C)[C@@H]5CC[C@]43C)[C@@H]12	active
Cc1ccc(NC(=S)/N=c2/n(-c3ccccc3)nc3n2CCN3C2=NCCN2)cc1	inactive
CCNc1cc2c(cc1Br)-c1ccccc1C2=O	inactive
O=C1COCCN1c1ccc(NCc2cn(Cc3ccc(F)cc3)c3ccccc23)cc1	active
COc1ccc(-c2cc(-c3ccc(OC)c(OC)c3)nc(SCCCCCC(=O)NO)n2)cc1	inactive
COc1ccc2c(c1)c(-c1noc(-c3cn(C)c4ncc(F)cc34)n1)cn2C	inactive
Cn1cc(-c2nnc(-c3cn(C)c4ncccc34)o2)c2ccccc21	inactive
CC(C)C1=NOC(=O)C1=Cc1cn(-c2cccnc2)nc1-c1ccccc1	inactive
CCOC(=O)C(=Cc1ccccc1[N+](=O)[O-])C(=O)OCC	active
CCn1cc(-c2ccnc(NCCNS(=O)(=O)c3cccc4ccccc34)c2)c(-c2cccc(O)c2)n1	inactive
Cn1ncc2c(Nc3ccc(O)cc3)nc(Cl)nc21	inactive
COc1cc2c(c(OC)c1)C1c3cc(OC)ccc3NC(=O)N1CC2 (stereo not drawn)	inactive
C#C[C@]1(O)CC[C@H]2[C@@H]3CC=C4c5nc(Nc6ncccn6)sc5CC[C@]4(C)[C@H]3CC[C@@]21C	inactive
NNC(=O)c1ccc(C(=O)NN)cc1	inactive
C=C(C)[C@@H]1CC[C@]2(C(=O)O)CC[C@]3(C)[C@H](CC[C@@H]4[C@@]5(C)C/C(=C/c6ccco6)C(=O)C(C)(C)[C@@H]5CC[C@]43C)[C@@H]12	active
COc1ccc(-c2nc3ccccn3c2/C=C/C(=O)c2cc(OC)c(OC)c(OC)c2)cc1OC	inactive
CSc1nc2sc3cc(Cl)c(Cl)cc3n2c(=N)c1C#N	inactive
COc1ncnc2c(-c3ccccc3)cn(COCc3ccccc3)c12	inactive
